System: KM20L2 colon
Assay: NCI tumour cell line growth inhibition, 48 h
MEASURED PARAMETER: TGI

## Task Which TGI reading was recorded for the compound CN(C)CCNc1ccc2nnn3c4ccc(O)cc4c(=O)c1c23 ?
## Result 22.7 µM

## Task What value of measured TGI is listed for CCN(CC)c1c(C(=O)/C=C/c2ccc(F)cc2)c(-c2ccccc2)nn(C)c1=O ?
## Result 44.4 µM

## Task Returns the measured TGI for the input compound. Input: COc1ccc(/C=C2\C(=O)NC(=O)c3ccccc32)cc1OC
## Result > 100 µM

## Task Please look up its TGI: Oc1ccc2c(c1)OCC1(O)Cc3cc(O)c(O)cc3C21 (stereo unspecified)
## Result > 63 µM

## Task What does the record list as TGI for COc1ccc(-c2onc(-c3ccc([N+](=O)[O-])cc3)c2C2=NCCCN2)cc1 ?
## Result > 100 µM

## Task What does the record list as TGI for O=c1[nH]c(=O)n(C2CC(O)C(CO)O2)cc1/C=C/Br (stereo unspecified) ?
## Result > 100 µM

###

Assignment: determine reported TGI for the given compounds.
System: NCI-H226 lung
Test: NCI tumour cell line growth inhibition, 48 h

## Task Would you kindly share the measured TGI for COC(=O)C(/C(=N/NC(N)=O)C(=O)Nc1c(C)cccc1C(C)(C)C)c1nc2ccc(Cl)cc2[nH]c1=O (stereo not given) ?
## Result > 100 µM

## Task Entry Cn1cc(C2=C(n3ccc4ccccc43)C(=O)NC2=O)c2ccccc21 has what TGI?
## Result > 25 µM

## Task Sample CC(C)C(=O)NCC[C@@H](CNC(=O)OC(C)(C)C)NC(=O)OC(C)(C)C — what was its TGI?
## Result > 100 µM

## Task Using the record for O=C(Nc1cc(Cl)c(Cl)cc1Cl)C(=O)C(C(=O)c1ccccc1)C1OC(=O)c2ccccc21 (stereo not given) , report its TGI.
## Result > 100 µM

## Task // query TGI value for entry CCCCCCCC/C(=C\C1=C(C)C(=O)C(OC)=C(OC)C1=O)C(=O)O
## Result > 100 µM

###

Test system: A498 renal
Test: NCI tumour cell line growth inhibition, 48 h
Exercise: for every item that follows, state its recorded TGI.

## Task Tell me the measured TGI of CC1(C)OCC(C2OC(OC(=O)c3ccc(C(F)(F)F)cc3)C3OC(C)(C)OC23)O1 (stereo unspecified) , please.
## Result > 77.5 µM

## Task Give its TGI value. Item: Cn1cc(C2=C(n3ccc4ccccc43)C(=O)NC2=O)c2ccccc21
## Result > 25 µM

## Task Endpoint output: TGI of O=C1c2ccccc2S(=O)(=O)N1CSC(=S)N1CCOCC1 . Value?
## Result > 100 µM

## Task Record request: TGI value, item CN(C)c1nc2n(CCO)ccnc-2c(=O)n1
## Result > 100 µM

## Task Param item = COc1ccc2c(c1OC)C(=O)OC2C1c2c(c(N)c3c(c2OC)OCO3)CCN1C (stereo unspecified) ; retrieve measured TGI.
## Result 13.3 µM

## Task // query TGI value for entry O=Cc1cn(Cc2ccccc2)c2ccccc12
## Result 0.389 µM

###

Tested on: HOP-18 NSCLC
Assay: NCI tumour cell line growth inhibition, 48 h
Would you kindly list TGI for each of these compounds?

## Task Field request: TGI | item: [N-]=[N+]=Nc1ncnc2c1sc(=S)n2-c1ccccc1
## Result > 100 µM

## Task # query: TGI of entry N/N=c1\c2ccccc2c2ccc3c4ccccc4/c(=N\N)c3c12
## Result > 100 µM

## Task Entry under review: COc1ccc(/C=C/C(=O)c2sc(Nc3ccc([N+](=O)[O-])cc3)nc2C)cc1 . Reported TGI?
## Result > 100 µM

## Task Looking for the measured TGI of CC[O-].CC[O-].CN(C)c1ccc([O-])cc1.CN(C)c1ccc([O-])cc1.[Ti+4] , can you help?
## Result > 100 µM

## Task Using the record for CCSC1=CC(Cc2ccc(OC)cc2)N(C(=O)OC)C1 (stereo unspecified) , report its TGI.
## Result > 100 µM

## Task Quick one: TGI of CCCCC1(C2c3ccccc3Oc3ccccc32)C(=O)N(c2ccccc2)N(c2ccccc2)C1=O ?
## Result > 100 µM

## Task Endpoint output: TGI of CN(C)CCNC(=O)C1COc2cc(-c3cc(=O)c4ccccc4o3)ccc2O1 (stereo unspecified) . Value?
## Result 56 µM

## Task Report TGI for O=C1c2ccccc2C(=O)c2nc3c(O)cccc3cc21 please.
## Result > 100 µM

## Task # TGI lookup, item N#CNC(=NCc1ccccc1)NCc1ccccc1
## Result > 100 µM

## Task Requested read-out: TGI. Entry: Cc1c(C)n(COCCO)c2ncnc(N)c12
## Result > 100 µM

## Task Report TGI for CCOC(=O)C(/C(=N/NC(=O)OC)C(=O)Nc1ccc(C(C)=O)cc1)c1cnc2ccccc2n1 (stereo unspecified) please.
## Result > 100 µM
